These entries and their values trace back to ChEMBL document CHEMBL1201862.

# Tested on: SK-MEL-2
# assay-protocol: NCI tumour cell line growth inhibition, 48 h
Activity calls are given as the source filed them. No stated cut-off is given here; in the data, active = GI50 up to about 1.1 µM and inactive = higher.
Outcome codes: 1 (yes) (active), 0 (no) (inactive)

CCOCc1cc(=O)c2cc3c(cc2o1)OC(C)(C)CC3 ... 0 (no)
Cn1c(=O)c2c(nc3n(CC(O)CCl)c(=O)ccn23)n(C)c1=O (centres undefined) ... 0 (no)
C/C(=N\O)c1sc(-n2nc(-c3ccccc3)cc2-c2ccccc2)nc1C ... 0 (no)
OCC1OC(n2cnc3c(/C=C(/O)c4ccccc4)ncnc32)C(O)C1O (centres undefined) ... 1 (yes)
Sc1ccc2ccccc2c1CNCc1ccccc1 ... 0 (no)
COc1ccc(Oc2cnn(C(Br)(Br)C(C)=O)c(=O)c2Br)cc1 ... 0 (no)
NN=C(CC(O)(C(F)(F)Cl)C(F)(F)Cl)CC(O)(C(F)(F)Cl)C(F)(F)Cl ... 0 (no)
CC(=O)O[C@H]1C(=O)[C@@]2(C)[C@H]([C@H](OC(=O)c3ccccc3)[C@]3(O)C[C@H](OC(=O)[C@H](O)[C@@H](NC(=O)c4ccccc4)c4cccc(N(C)C)c4)C(C)=C1C3(C)C)[C@]1(OC(C)=O)CO[C@@H]1C[C@@H]2O ... 1 (yes)
c1cnc2c(c1)-n1cccc1C1(CCSC1)NN2 (centres undefined) ... 0 (no)

----------
# Tested on: Hs-578T
# assay-protocol: NCI tumour cell line growth inhibition, 48 h
Activity calls are given as the source filed them. No stated cut-off is given here; in the data, active = GI50 up to about 1.1 µM and inactive = higher.
Outcome codes: Yes (active), No (inactive)

CCC[C@H](C)[C@H]1NC(=O)[C@@H](NC(=O)[C@@H](CC(C)C)N(C)C(=O)C2CCCN2C(=O)[C@H](C)O)[C@@H](C)OC(=O)[C@H](CC(C)C)N(C)C(=O)[C@@H]2CCCN2C(=O)[C@H](CC(C)C)NC(=O)[C@@H](C)C(=O)[C@H](C(C)C)OC(=O)C[C@@H]1O (some centres undefined) ... Yes
Sc1ccc2ccccc2c1CNCc1ccccc1 ... No
CC(=O)/C=c1\[nH]/c(=C\C=C\c2ccccc2)c(=O)n1/C=C1\C(=O)Oc2ccccc2C1=O ... No
O=C(Nc1ccccc1)OCCN=c1c2ccccc2ccc2ccccc12 ... No

----------
# System: HOP-62
# assay-protocol: NCI tumour cell line growth inhibition, 48 h
Calls of active or inactive are those of the source. Rule as the data show it: active = GI50 up to about 1.1 µM and inactive = higher.
Outcome codes: active, inactive

COC/C=C\COC ... inactive
C=CCC12CC(=O)CCC1c1ccc(OC)cc1C2=O (configuration not stated) ... inactive
CCOC(=O)/C=C1\Nc2ccccc2C12CCc1c([nH]c3ccccc13)C2C(=O)OCC (configuration not stated) ... inactive
CCOC(=O)c1cc(Br)c(-c2onc(C)c2Br)[nH]1 ... inactive
Cc1cn(CCCCOC(=O)NC(CCCNC(=N)N)C(=O)O)c(=O)[nH]c1=O (configuration not stated) ... inactive
CC1=C(C(=O)NNC(=O)c2ccccc2O)CC(C(=O)NNC(=O)c2ccccc2O)=C(C)N1 ... inactive
CC(C)(C)OC(=O)/C=C/C(=O)O/C=C/[N+](=O)[O-] ... inactive
C=C1CC(OC(C)=O)/C=C(/C)CCC(C(C)(C)O)CC1O (configuration not stated) ... inactive
CC(=N\N=C\c1ccccn1)/C(C)=N/N=C(C)/C(C)=N/N=C(C)/C(C)=N/N=C/c1ccccn1 ... inactive
CC(C)OP(=O)(OC(C)C)/C(=N/Nc1ccc([N+](=O)[O-])cc1)NCCN/C(=N\Nc1ccc([N+](=O)[O-])cc1)P(=O)(OC(C)C)OC(C)C ... inactive
COc1cc(/C=[N+](\[O-])c2ccccc2Cl)ccc1OC(=S)S ... inactive
CCOCc1cc(=O)c2cc3c(cc2o1)OC(C)(C)CC3 ... inactive
Cn1c2c(c3ccccc31)CCN1C(=O)CCC21 (configuration not stated) ... inactive
CCOC(=O)C(=O)Nc1cc(Cl)c(Cl)cc1Cl ... inactive
Nc1nc(Cl)cc(NCCCCO)n1 ... inactive
CCCCCCc1cc(C(=O)Nc2cccc(C(F)(F)F)c2)nc(N)n1 ... inactive
Cc1nc2c(ccc3ncccc32)[nH]1 ... inactive
CCOC(=O)C1(Br)C(c2ccccc2)NC(=O)N(C2OC(COC(=O)c3ccccc3)C(OC(=O)c3ccccc3)C2OC(=O)c2ccccc2)C1(C)Br (configuration not stated) ... inactive
O=C(CCl)Nc1ccc(C(=O)N/N=C/c2ccc(Cl)cc2)cc1 ... inactive
O=C(O)CN(CC(=O)O)Cc1cc(C#Cc2ccc(C#Cc3ccccc3)cc2)cc(CN(CC(=O)O)CC(=O)O)n1 ... inactive
Cc1cc2c(cc1CO)N1Cc3cc(C)c(CO)cc3N(C2)C1 ... inactive
CC1CC2(CC[C@@H]1O)OCCO2 (some centres not stated) ... inactive
CCOC(=O)c1cc(C#N)[nH]c1-c1ccsc1 ... inactive
COC(=O)C(Cc1nc2ccccc2nc1O)C(=O)C(=O)Nc1ccc(OC)cc1[N+](=O)[O-] (configuration not stated) ... inactive
CN(C)C(=S)/N=c1\ssc(=S)n1Cc1cccs1 ... inactive
Cc1cnc2ccc(C)c([N+](=O)[O-])c2c1NCCCN(C)C ... inactive
COc1ccc(N/N=C(\CCN(C)C)c2ccccc2)cc1 ... inactive
OCC1OC(n2cnc3c(/C=C(/O)c4ccccc4)ncnc32)C(O)C1O (configuration not stated) ... inactive
O=C1c2ccccc2-c2c1c1ccccc1c(=O)n2Cc1ccccc1 ... inactive
CCCCc1c2c(nc3c1CCc1cc4c(nc1-3)-c1nc3c(c(CCCC)c1CC4)CCC/C3=C\c1ccccc1)/C(=C/c1ccccc1)CCC2 ... inactive
CCOC(=O)C(=O)Nc1ccc(Cl)c(C(F)(F)F)c1 ... inactive
CC12CCC(=O)C=C1CCC1C2C(O)CC2(C)C(c3csc(N)n3)CCC12.O=S(=O)(O)c1ccc(Br)cc1 (configuration not stated) ... inactive
O=S1(=O)c2ccccc2C(Nc2ccccc2)N1c1ccccc1 (configuration not stated) ... inactive
O=S(O)CCCCCSSc1ccccc1 ... inactive
CC1(C)OCC(C2OC(=O)C(OCc3ccccc3)=C2OCc2ccccc2)O1 (configuration not stated) ... inactive
Cc1[nH]c(-c2ccccc2)c(O)c1C(=O)OC1CC(C)CCC1C(C)C (configuration not stated) ... inactive
COC(=O)c1nc2c(C)c(O)c(O)c([C@H](C)CCC=C(C)C)c2o1 ... inactive
C=C1C(O)C2(O)OCC34C(CC5C(C)=CC(=O)C(O)C5(C)C23)OC(=O)C(OC(=O)C/C=C/CCCCCCCC)C14 (configuration not stated) ... active
Cc1cc(C)nc(NC(P(=O)(O)O)P(=O)(O)O)n1 ... inactive
O=C1NC(=S)NC(=O)C1C(c1ccc(O)cc1)C1C(=O)NC(=S)NC1=O.c1ccncc1 ... inactive
Cc1cc(S(=O)(=O)Nc2cc(N)n[nH]2)c(SCc2nc(N)nc(N(C)C)n2)cc1Cl ... inactive
CC(C)=C1C(=O)C[C@]2(C)C[C@H]3O[C@]3(C)CC[C@@H]3O[C@@]3(C)CC[C@@H]12 ... inactive
